- SYSTEM UNDER TEST: transactivating tegument protein VP16 (Human herpesvirus 1), as a GAL4-VP16 activation-domain luciferase reporter
- ASSAY SUMMARY: VP16 transactivation inhibitor potency, dose response, counter-screen for SRC3 inhibitor project, cell-based, luminescence, high throughput, SRC3 series (AID 602167)
- ASSAY CONTEXT: VP16 transactivation luciferase reporter cells
The source made the active and inactive calls. The rule behind the calls is not given here.
Select the correct class. Options are Y = active, N = inactive and nothing else.

Look over these answered cases.
{"COMPOUND": "COc1cc(C(=O)OCC(=O)Nc2sccc2C(N)=O)cc(OC)c1OC", "GROUP LABEL": "N"}
{"COMPOUND": "CS(=O)(=O)c1ccc(Sc2nc3ccccc3s2)c([N+](=O)[O-])c1", "GROUP LABEL": "N"}
{"COMPOUND": "Cc1cc(/C=C2\\Cc3ccccc3C2=O)c(C)n1-c1ccccc1", "GROUP LABEL": "N"}

Query: Record request — test call for O=c1[nH]c2ccccc2n1C1CCN(C(c2ccccc2)c2nnnn2Cc2ccccc2)CC1 (stereo unspecified)
Reply: N

Query: Record request — test call for O=C(N/N=C(\c1ccccc1)c1ccccn1)c1ccccc1Cl
Reply: Y

Query: Record request — test call for Cc1nc([N+](=O)[O-])c(Sc2nc3ccccc3n2C)n1Cc1ccccc1
Reply: N

Query: Record request — test call for Cc1ccc(-n2c(C)cc(C(=O)COc3cccnc3[N+](=O)[O-])c2C)cc1
Reply: N

Query: Record request — test call for NNC(=O)c1cc2ccccc2cc1O
Reply: N

Query: Record request — test call for O=C(CCl)NC(Cc1ccccc1)c1ccccc1 (stereo unspecified)
Reply: N

Query: Record request — test call for O=C(CNc1cccc([N+](=O)[O-])c1)N/N=C/c1ccc([N+](=O)[O-])o1
Reply: N

Query: Record request — test call for COc1cc(/C=C2\CC(C(C)(C)C)C/C(=C\c3cc(OC)c(OC)c(OC)c3)C2=O)cc(OC)c1OC (stereo unspecified)
Reply: Y

====

- SYSTEM UNDER TEST: transactivating tegument protein VP16 (Human herpesvirus 1), as a GAL4-VP16 activation-domain luciferase reporter
- ASSAY SUMMARY: VP16 transactivation inhibitor potency, dose response, counter-screen for SRC3 inhibitor project, cell-based, luminescence, high throughput, SRC3 series (AID 602167)
- ASSAY CONTEXT: VP16 transactivation luciferase reporter cells
Activity calls are given as the source filed them. No rule for the calls is given here.
MEASURED QUANTITY: IC50

Some compounds with recorded IC50:
{"COMPOUND": "COc1ccc(Nc2ccncc2[N+](=O)[O-])cc1", "IC50": "6.45 µM"}
{"COMPOUND": "COc1cc(C2c3cc4c(cc3C(OC3OC5COC(c6cccs6)OC5C(O)C3O)C3COC(=O)C23)OCO4)cc(OC)c1O (stereo unspecified)", "IC50": "> 35.8 µM (inactive)"}
{"COMPOUND": "COC(=O)c1c(C)n(-c2ccc(OC)cc2)c2ccc(O)cc12", "IC50": "8.88 µM"}
{"COMPOUND": "CC(=O)/C(N=Nc1ccc2c(c1)OCCO2)=C(\\C)O", "IC50": "> 12 µM (inactive)"}
{"COMPOUND": "COc1cc(/C=C(/C(=O)c2cccs2)c2nc3ccccc3[nH]2)cc(OC)c1O", "IC50": "8.01 µM"}

Could you report IC50 for every entry in the following list?
1. CN(C)/C=C/C(=O)c1ccc2noc(-c3ccccc3)c2c1
2. Cc1ccc(N(CCC#N)C(=O)CCl)cc1C

Reply:
1: inactive; 2: > 12 µM (inactive)

====

- SYSTEM UNDER TEST: transactivating tegument protein VP16 (Human herpesvirus 1), as a GAL4-VP16 activation-domain luciferase reporter
- ASSAY SUMMARY: VP16 transactivation inhibitor potency, dose response, counter-screen for SRC3 inhibitor project, cell-based, luminescence, high throughput, SRC3 series (AID 602167)
- ASSAY CONTEXT: VP16 transactivation luciferase reporter cells
Calls of active or inactive are those of the source. The rule behind the calls is not given here.
Select the correct class. Options are active, inactive and nothing else.

{"STRUCTURE NOTATION": "O=C(Nc1nc2cc3c(cc2s1)OCCO3)C1=COCCO1", "GROUP LABEL": "active"}
{"STRUCTURE NOTATION": "O=C(c1ccncc1)N(Cc1cc2ccccc2[nH]c1=O)C1CCCCC1", "GROUP LABEL": "active"}
{"STRUCTURE NOTATION": "Cc1ccc2occ(/C=N/NC(=O)[C@@H](N)Cc3ccccc3)c(=O)c2c1", "GROUP LABEL": "active"}
{"STRUCTURE NOTATION": "CC(C)N(c1ccccc1)c1ccc(NC(=O)CCl)cc1", "GROUP LABEL": "inactive"}
{"STRUCTURE NOTATION": "CCn1ccnc1CN(C)Cc1cn[nH]c1-c1ccc(OC)c(F)c1", "GROUP LABEL": "active"}
{"STRUCTURE NOTATION": "Fc1ccc(CSc2nnc(-c3ccncc3)o2)cc1", "GROUP LABEL": "active"}
{"STRUCTURE NOTATION": "CC1CCN(C2=NC(=O)/C(=C/c3ccccc3F)S2)CC1", "GROUP LABEL": "inactive"}
{"STRUCTURE NOTATION": "O=C(Nc1cccnc1)c1ccc(C(=O)Nc2cccnc2)cc1", "GROUP LABEL": "inactive"}

Query: Record request — test call for O=C(COC(=O)c1ccc[nH]c1=O)Nc1ccc(N2CCCCC2)cc1
Reply: inactive

Query: Record request — test call for CCOc1ccc(-c2cc(C)n3nc(C(N)=O)cc3n2)cc1
Reply: inactive

Query: Record request — test call for CC(=O)N1CCN(c2ncnc3ccccc23)CC1
Reply: inactive

====

- SYSTEM UNDER TEST: transactivating tegument protein VP16 (Human herpesvirus 1), as a GAL4-VP16 activation-domain luciferase reporter
- ASSAY SUMMARY: VP16 transactivation inhibitor potency, dose response, counter-screen for SRC3 inhibitor project, cell-based, luminescence, high throughput, SRC3 series (AID 602167)
- ASSAY CONTEXT: VP16 transactivation luciferase reporter cells
Calls of active or inactive are those of the source. No rule for the calls is given here.
Select the correct class. Options are T = active, F = inactive and nothing else.

{"MOLECULE": "CC(C)(C)c1ccc(Oc2ccc(N)cn2)cc1", "GROUP LABEL": "F"}

Query: Record request — test call for Cc1c(/C(O)=C2/C(=O)C(=O)N(Cc3cccnc3)C2c2ccccn2)cnn1-c1ccccc1 (stereo not given)
Reply: F

Query: Record request — test call for CCc1ccc(/C=C2\SC(=S)N(CCCC(=O)NCCCN3CCOCC3)C2=O)cc1
Reply: F

Query: Record request — test call for CCCCC(=O)NC(c1ccc(Cl)cc1Cl)c1ccc2cccnc2c1O (stereo not given)
Reply: T

Query: Record request — test call for O=C(NC(NC(=S)N1CCOCC1)C(Cl)(Cl)Cl)c1ccc(Cl)cc1 (stereo not given)
Reply: F

====

- SYSTEM UNDER TEST: transactivating tegument protein VP16 (Human herpesvirus 1), as a GAL4-VP16 activation-domain luciferase reporter
- ASSAY SUMMARY: VP16 transactivation inhibitor potency, dose response, counter-screen for SRC3 inhibitor project, cell-based, luminescence, high throughput, SRC3 series (AID 602167)
- ASSAY CONTEXT: VP16 transactivation luciferase reporter cells
The source made the active and inactive calls. How the calls were made is not given here.
Select the correct class. Options are active, inactive and nothing else.

Query: Record request — test call for Brc1ccc2ncc3ccccc3c2c1
Reply: inactive

Query: Record request — test call for Nc1nccc(-c2ccc(-n3cnc4ccccc43)cc2)n1
Reply: active

Query: Record request — test call for CNc1ncnc(Sc2nc(N)nc3nc[nH]c23)c1[N+](=O)[O-]
Reply: active

Query: Record request — test call for CN1C(=O)C2(C(C#N)=C(N)N(c3cc(Cl)cc(Cl)c3)C3=C2C(=O)CCC3)c2ccccc21 (stereo not given)
Reply: inactive

Query: Record request — test call for O=c1[nH]c2ccccc2n1C1CCN(C(c2cccc3ccccc23)c2nnnn2-c2ccc3c(c2)OCCO3)CC1 (stereo not given)
Reply: active

====

- SYSTEM UNDER TEST: transactivating tegument protein VP16 (Human herpesvirus 1), as a GAL4-VP16 activation-domain luciferase reporter
- ASSAY SUMMARY: VP16 transactivation inhibitor potency, dose response, counter-screen for SRC3 inhibitor project, cell-based, luminescence, high throughput, SRC3 series (AID 602167)
- ASSAY CONTEXT: VP16 transactivation luciferase reporter cells
Calls of active or inactive are those of the source. The rule behind the calls is not given here.
Select the correct class. Options are True for active, False for inactive and nothing else.

{"MOLECULE": "Cc1cc(C(=O)CN2C(=O)c3ccccc3S2(=O)=O)c(C)n1C(C)C", "GROUP LABEL": "False"}
{"MOLECULE": "COc1ccc(/C=C2\\CC/C(=C\\c3ccc(OC)c(OC)c3)C2=O)cc1OC", "GROUP LABEL": "False"}
{"MOLECULE": "CCOC(=O)C(=CNc1ccc(NC2=NCC(C)S2)cc1)C(=O)OCC (configuration not stated)", "GROUP LABEL": "False"}
{"MOLECULE": "CCOC(=O)c1cc2sccc2n1CC(=O)N1CCc2ccccc21", "GROUP LABEL": "False"}

Query: Record request — test call for N#Cc1c2ccc(O)cc2n2ccccc12
Reply: False

Query: Record request — test call for COc1cc2c(cc1OC)C(C)N(C(=O)c1cccc([N+](=O)[O-])c1)CC2 (configuration not stated)
Reply: True

Query: Record request — test call for COc1ccc(OC)c(Cc2cnc3nc(N)nc(N)c3c2C)c1
Reply: False

Query: Record request — test call for CN1CCN(c2ccc(NC(=O)N3CCc4ccccc43)cc2)CC1
Reply: False

Query: Record request — test call for Cc1cccc(NC(=O)c2cc(Cl)ccc2[N+](=O)[O-])c1
Reply: False

Query: Record request — test call for Cc1nc2c(-c3ccc(Cl)cc3)cnn2c(N)c1-c1ccc(F)cc1
Reply: True

Query: Record request — test call for C/C(=N\NC(=S)Nc1cc(S(=O)(=O)N2CCOCC2)ccc1Cl)c1ccccc1F
Reply: False
